The origin of these recorded values is ChEMBL document CHEMBL4831556.

- Method Summary: Tmax in CFA-induced rheumatoid arthritis Lewis rat model at 0.3 mg/kg, po administered once daily for 15 days
- Type: ADME, organism-based
- Protocol Conditions: in vivo, time 15 day
Measured Endpoint: Tmax (h)
Output spec: scalar in h, unitless text.

Ask | Consider the molecule `Cc1c(-c2ccc(NC(=O)c3c(F)cccc3F)cc2)cccc1-c1nn(C)c(=O)o1` . State its measured Tmax.
Reply | 2

----------
- Experimental Target: Voltage-gated inwardly rectifying potassium channel KCNH2 (Homo sapiens)
- Sequence (Q12809 whole entry): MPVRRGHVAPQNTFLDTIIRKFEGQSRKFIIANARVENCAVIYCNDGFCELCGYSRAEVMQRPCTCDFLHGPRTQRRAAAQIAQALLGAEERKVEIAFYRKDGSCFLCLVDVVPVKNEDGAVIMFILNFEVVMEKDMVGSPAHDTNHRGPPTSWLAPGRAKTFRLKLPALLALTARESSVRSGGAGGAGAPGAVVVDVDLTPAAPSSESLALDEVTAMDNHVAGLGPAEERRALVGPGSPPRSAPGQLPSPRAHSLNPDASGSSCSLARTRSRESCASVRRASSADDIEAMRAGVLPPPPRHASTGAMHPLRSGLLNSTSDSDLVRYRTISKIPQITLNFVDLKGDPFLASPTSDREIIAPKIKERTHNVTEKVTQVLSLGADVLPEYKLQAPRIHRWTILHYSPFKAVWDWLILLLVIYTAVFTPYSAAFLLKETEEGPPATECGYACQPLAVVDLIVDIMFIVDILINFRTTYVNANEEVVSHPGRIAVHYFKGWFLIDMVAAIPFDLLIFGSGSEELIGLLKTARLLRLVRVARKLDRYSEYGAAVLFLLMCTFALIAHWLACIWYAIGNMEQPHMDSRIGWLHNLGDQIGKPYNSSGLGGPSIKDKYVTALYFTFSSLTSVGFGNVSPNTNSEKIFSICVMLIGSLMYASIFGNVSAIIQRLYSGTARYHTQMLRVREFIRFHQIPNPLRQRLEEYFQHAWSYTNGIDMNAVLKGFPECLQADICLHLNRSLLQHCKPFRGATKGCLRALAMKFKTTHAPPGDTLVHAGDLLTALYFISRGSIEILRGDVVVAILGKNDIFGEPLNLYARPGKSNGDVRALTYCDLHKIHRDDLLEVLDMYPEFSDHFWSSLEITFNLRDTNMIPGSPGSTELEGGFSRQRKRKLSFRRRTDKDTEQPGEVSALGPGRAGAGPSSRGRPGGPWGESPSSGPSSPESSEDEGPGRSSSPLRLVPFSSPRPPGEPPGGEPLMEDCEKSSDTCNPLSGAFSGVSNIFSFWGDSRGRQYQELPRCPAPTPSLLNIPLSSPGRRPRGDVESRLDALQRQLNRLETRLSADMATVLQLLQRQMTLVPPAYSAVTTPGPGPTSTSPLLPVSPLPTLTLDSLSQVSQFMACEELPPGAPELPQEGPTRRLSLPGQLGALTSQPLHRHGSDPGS
- Method Summary: Inhibition of human ERG by FLIPR TETRA method
Measured Endpoint: IC50

Ask | Enter measured IC50, system Voltage-gated inwardly rectifying potassium channel KCNH2 (Homo sapiens), for the compound shown: `Cc1c(-c2ccc(NC(=O)c3c(F)cccc3F)cc2)cccc1-c1nn(C)c(=O)o1`
Reply | > 10 µM
